Hey, just so you know, these numbers are from PubChem BioAssay (NCI).

Test system: SF-268 CNS
Assay: NCI-60 one-dose screen, 48 h (100 = growth as untreated, 0 = no growth, -100 = all killed)
Conditions: 10 µM unless noted
Compounds without any hit were thinned out: in the full panel of roughly 83,000, 20% have a hit. Activity calls are given as the source filed them. Rule for the calls: active = growth percent below 10; inactive = the rest.
growth values by entry
reported-property: growth

INSERT INTO results (compound, reported_property, result) VALUES
  ('CN1CCN(c2ccc(NC(=O)c3cncnc3Nc3ccc4c(ccn4Cc4cccc(F)c4)c3)cc2)CC1', 'growth', '71% (inactive)'),
  ('COC(=O)c1c2c(n3ccc(C)cc13)C(=O)c1ccccc1C2=O', 'growth', '74.9% (inactive)'),
  ('C=CC(C)(O)CC/C=C(\CO)C(=O)OC1C(C)OC(O[C@](C)(C=C)CC/C=C(\CO)C(=O)O[C@H]2C[C@@]3(C(=O)OC4OC(CO)C(O)C(O)C4OC4OC(C)C(OC5OC(CO)C(O)C5O)C(OC5OC(CO)C(O)C(O)C5O)C4O)C(CC2(C)C)C2=CCC4[C@@]5(C)CC[C@H](OC6OC(COC7OC(C)C(O)C(O)C7OC7OCC(O)C(O)C7O)C(O)C(O)C6NC(C)=O)C(C)(C)C5CC[C@@]4(C)[C@]2(C)C[C@H]3O)C(O)C1O (stereo partly specified)', 'growth', '-53.4% (active)'),
  ('CN1C(=O)N(C)C2C1NC(=S)N2/N=C/C=C/c1ccccc1[N+](=O)[O-] (stereo unspecified)', 'growth', '41.3% (inactive)'),
  ('COc1ccc(Cl)cc1Nc1nc(C(F)(F)F)ccc1C(=O)N/N=C/c1ccccc1Cl', 'growth', '13.6% (inactive)'),
  ('C=C(C)[C@@H]1CC[C@]2(CO)CC[C@]3(C)[C@H](CC[C@@H]4[C@@]5(C)CCC(NCCc6ccc(O)cc6)C(C)(C)[C@@H]5CC[C@]43C)[C@@H]12 (stereo partly specified)', 'growth', '-88.8% (active)');
